Provide the reported IC50 of each item.
- systemUnderTest: β-lactamase P99 (Enterobacter cloacae, UniProt P05364)
- Construct: The β-lactamases are isolated from bacterial strains resistant to penicillins and to cephalosporins; endogenous in cells; host or cells: E. cloacae 293HT6 (soluble fraction of French-press lysate, 100 000 G supernatant)
- Sequence (P05364 21-381): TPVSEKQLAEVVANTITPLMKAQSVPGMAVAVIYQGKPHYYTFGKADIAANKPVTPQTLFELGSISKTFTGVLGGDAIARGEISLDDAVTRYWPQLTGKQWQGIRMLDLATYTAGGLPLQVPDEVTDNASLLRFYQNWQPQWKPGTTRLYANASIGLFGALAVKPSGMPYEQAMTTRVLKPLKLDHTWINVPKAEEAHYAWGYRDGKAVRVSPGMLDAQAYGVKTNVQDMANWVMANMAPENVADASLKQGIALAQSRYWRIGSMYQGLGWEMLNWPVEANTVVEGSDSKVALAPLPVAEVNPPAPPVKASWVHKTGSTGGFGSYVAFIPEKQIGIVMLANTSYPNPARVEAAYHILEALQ
- methodSummary: biochemical
- Assay type: biochemical
- conditionSet: 100 μM Nitrocefin, 50 mM sodium phosphate buffer pH 7.0, 37° C.
One number for each entry, in nM.

Can you give me IC50 for all of these, one by one?
1. COC(=O)C1c2sc(-c3ccc(F)cc3)cc2C2CN1C(=O)N2OS(=O)(=O)O (stereo not drawn)
2. COCCOCOc1ccc2c(c1)[C@@H]1CN(C(=O)N1OS(=O)(=O)O)[C@H]2C(=O)NOC (relative stereo)
3. COC(=O)[C@@H]1c2sc(C(N)=O)cc2[C@H]2CN1C(=O)N2OS(=O)(=O)O (relative stereo)
4. CCOC(=O)[C@H]1c2cccc(OC(=O)Nc3ccccc3)c2[C@@H]2CN1C(=O)N2OS(=O)(=O)O (relative stereo)
5. CCOC(=O)C1c2ccc(OC(=O)Nc3ccccc3)cc2C2CN1C(=O)N2OS(=O)(=O)O (stereo not drawn)
6. CC1(C)OCC(COc2ccc3c(c2)C2CN(C(=O)N2OS(=O)(=O)O)C3C(N)=O)O1 (stereo not drawn)
7. COC(=O)[C@@H]1c2nn(CC(=O)O)cc2[C@H]2CN1C(=O)N2OS(=O)(=O)O (relative stereo)

1. 16
2. 17
3. 69
4. 25
5. 21
6. 44
7. 50

Can you give me IC50 for all of these, one by one?
1. COC(=O)[C@@H]1c2nn(CCc3ccccc3)cc2[C@H]2CN1C(=O)N2OS(=O)(=O)O (relative stereo)
2. COc1ccc(Cn2ncc3c2CN2CC3N(OS(=O)(=O)O)C2=O)cc1 (stereo not drawn)
3. CCOC(=O)Cn1ncc2c1C(C(=O)OC)N1CC2N(OS(=O)(=O)O)C1=O (stereo not drawn)
4. COC(=O)C1c2c(cnn2CCc2ccccc2)C2CN1C(=O)N2OS(=O)(=O)O (stereo not drawn)
5. NC(=O)[C@H]1c2ccc(OCCOS(=O)(=O)O)cc2[C@@H]2CN1C(=O)N2OS(=O)(=O)O (relative stereo)
6. NC(=O)C1c2nn(-c3ccccc3)cc2C2CN1C(=O)N2OS(=O)(=O)O (stereo not drawn)

1: 11; 2: 13; 3: 7; 4: 20; 5: 29; 6: 12

Can you give me IC50 for all of these, one by one?
1. CCOC(=O)Cn1cc2c(n1)[C@@H](C(=O)OC)N1C[C@H]2N(OS(=O)(=O)O)C1=O (relative stereo)
2. CCNC(=O)Oc1ccc2c(c1)[C@@H]1CN(C(=O)N1OS(=O)(=O)O)[C@H]2C(=O)OCC (relative stereo)

1: 17; 2: 19

###

- systemUnderTest: β-lactamase TEM1 (Escherichia coli, UniProt P62593)
- Construct: The β-lactamases are isolated from bacterial strains resistant to penicillins and to cephalosporins; endogenous in cells; host or cells: E. coli 250HT21 (soluble fraction of French-press lysate, 100 000 G supernatant)
- Sequence (P62593 24-286 limits assumed): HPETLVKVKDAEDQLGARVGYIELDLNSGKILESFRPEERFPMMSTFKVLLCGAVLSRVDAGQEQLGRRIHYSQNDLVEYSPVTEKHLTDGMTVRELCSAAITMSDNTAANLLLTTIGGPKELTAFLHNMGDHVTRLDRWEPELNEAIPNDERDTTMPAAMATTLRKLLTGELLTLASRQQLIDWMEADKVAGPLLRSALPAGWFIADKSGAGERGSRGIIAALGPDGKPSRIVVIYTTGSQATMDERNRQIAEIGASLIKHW
- methodSummary: β-lactamase inhibiting activity (Nitrocefin hydrolysis)
- Type: biochemical, E. coli 250HT21
- conditionSet: 100 μM Nitrocefin, 50 mM sodium phosphate buffer pH 7.0, 37° C.; read-out: IC50 nM/TEM1
Heads up, the class ranges for IC50 are Low: < 3 nM; Mid: ≥ 3 nM and < 10 nM; High: ≥ 10 nM

Consider the following illustrative entries.
* Cc1ccccc1-c1cc2c(s1)[C@@H](C(N)=O)N1C[C@H]2N(OS(=O)(=O)O)C1=O (relative stereo) | Low
* CCOC(=O)Cn1cc2c(n1)[C@@H](C(=O)OC)N1C[C@H]2N(OS(=O)(=O)O)C1=O (relative stereo) | High
* CCc1ccccc1-c1cc2c(s1)[C@@H](C(N)=O)N1C[C@H]2N(OS(=O)(=O)O)C1=O (relative stereo) | Low
* NC(=O)[C@@H]1c2sc(-c3ccccc3C(F)(F)F)cc2[C@H]2CN1C(=O)N2OS(=O)(=O)O (relative stereo) | Low
* NC(=O)[C@H]1c2ccc(OCCOS(=O)(=O)O)cc2[C@@H]2CN1C(=O)N2OS(=O)(=O)O (relative stereo) | Mid

State the band of NC(=O)C1c2nn(C(=O)Nc3ccccc3)cc2C2CN1C(=O)N2OS(=O)(=O)O (centres unmarked)
Low

State the band of COC(=O)[C@@H]1c2nn(CCc3ccccc3)cc2[C@H]2CN1C(=O)N2OS(=O)(=O)O (relative stereo)
Low

###

- systemUnderTest: β-lactamase P99 (Enterobacter cloacae)
- Construct: The β-lactamases are isolated from bacterial strains resistant to penicillins and to cephalosporins; endogenous in cells; host or cells: E. cloacae 293HT6 (soluble fraction of French-press lysate, 100 000 G supernatant)
- methodSummary: biochemical
- Type: biochemical
- conditionSet: pH 7
Provide the reported IC50 of each item.
One number for each entry, in nM.

• CCOC(=O)[C@H]1c2ccc(OS(=O)(=O)C(F)(F)F)cc2[C@@H]2CN1C(=O)N2OS(=O)(=O)O (relative stereo) = 12

Now look at this entry.
Name the recorded IC50 of the compound listed here: CCOC(=O)[C@@H]1c2c(-c3ccc(F)cc3)csc2[C@H]2CN1C(=O)N2OS(=O)(=O)O (relative stereo)
2

###

- systemUnderTest: β-lactamase TEM1 (Escherichia coli)
- Construct: The β-lactamases are isolated from bacterial strains resistant to penicillins and to cephalosporins; endogenous in cells; host or cells: E. coli 250HT21 (soluble fraction of French-press lysate, 100 000 G supernatant)
- methodSummary: β-lactamase inhibiting activity (Nitrocefin hydrolysis)
- Format: biochemical, E. coli 250HT21
Provide the reported pIC50 of each item.
Numbers only, as −log10 of the molar value.

* COC(=O)C1c2c(cnn2CCc2ccccc2)C2CN1C(=O)N2OS(=O)(=O)O (stereo not drawn) | 7.80
* COC(=O)C1c2sc(-c3ccc(F)cc3)cc2C2CN1C(=O)N2OS(=O)(=O)O (stereo not drawn) | 8.30
* CC1(C)OCC(COc2ccc3c(c2)C2CN(C(=O)N2OS(=O)(=O)O)C3C(N)=O)O1 (stereo not drawn) | 7.82
* CCOC(=O)C1c2ccc(OC(=O)Nc3ccccc3)cc2C2CN1C(=O)N2OS(=O)(=O)O (stereo not drawn) | 7.39
* CCOC(=O)Cn1ncc2c1C(C(=O)OC)N1CC2N(OS(=O)(=O)O)C1=O (stereo not drawn) | 7.47
* COC(=O)[C@@H]1c2c(cnn2C(N)=O)[C@@H]2CN1C(=O)N2OS(=O)(=O)O (relative stereo) | 7.92
* O=C1N2Cc3c(cnn3-c3ccccc3)C(C2)N1OS(=O)(=O)O (stereo not drawn) | 8.30
* NC(=O)C1c2nn(-c3ccccc3)cc2C2CN1C(=O)N2OS(=O)(=O)O (stereo not drawn) | 9.00

Now look at this entry.
Name the recorded pIC50 of the compound listed here: COC(=O)C1c2nn(C(N)=O)cc2C2CN1C(=O)N2OS(=O)(=O)O (stereo not drawn)
7.96

###

- systemUnderTest: β-lactamase TEM1 (Escherichia coli, UniProt P62593)
- Construct: The β-lactamases are isolated from bacterial strains resistant to penicillins and to cephalosporins; endogenous in cells; host or cells: E. coli 250HT21 (soluble fraction of French-press lysate, 100 000 G supernatant)
- methodSummary: β-lactamase inhibiting activity (Nitrocefin hydrolysis)
- Format: biochemical, E. coli 250HT21
- conditionSet: 100 μM Nitrocefin, 50 mM sodium phosphate buffer pH 7.0, 37° C.; read-out: IC50 nM/TEM1
Exam item: assign Yes to entries whose IC50 is below 30 nM and No to entries at or above 30 nM. Note that a value of exactly 30 nM receives No.

Consider the following illustrative entries.
• COC(=O)[C@@H]1c2nn(Cc3ccccc3)cc2[C@H]2CN1C(=O)N2OS(=O)(=O)O (relative stereo) = Yes
• NC(=O)[C@@H]1c2c(cnn2-c2ccccc2)[C@H]2CN1C(=O)N2OS(=O)(=O)O (relative stereo) = Yes
• COC(=O)[C@@H]1c2nn(CC(=O)O)cc2[C@H]2CN1C(=O)N2OS(=O)(=O)O (relative stereo) = No
• CCNC(=O)Oc1ccc2c(c1)[C@@H]1CN(C(=O)N1OS(=O)(=O)O)[C@H]2C(=O)OCC (relative stereo) = No
• COCCOCOc1ccc2c(c1)[C@@H]1CN(C(=O)N1OS(=O)(=O)O)[C@H]2C(=O)NOC (relative stereo) = No
• CCOC(=O)[C@H]1c2cccc(OC(=O)Nc3ccccc3)c2[C@@H]2CN1C(=O)N2OS(=O)(=O)O (relative stereo) = No
• CCOC(=O)[C@@H]1c2c(-c3ccc(F)cc3)csc2[C@H]2CN1C(=O)N2OS(=O)(=O)O (relative stereo) = No
• COc1ccc(Cn2ncc3c2CN2CC3N(OS(=O)(=O)O)C2=O)cc1 (stereo not shown) = Yes
• CCOC(=O)[C@H]1c2ccc(OS(=O)(=O)C(F)(F)F)cc2[C@@H]2CN1C(=O)N2OS(=O)(=O)O (relative stereo) = Yes

Would you kindly look at the next entry?
Lab note: confirm whether the reported IC50 for this compound is below 30 nM, equality not counting. compound: COC(=O)[C@@H]1c2sc(C(N)=O)cc2[C@H]2CN1C(=O)N2OS(=O)(=O)O (relative stereo)
Yes

All values here come from patent US7439253B2.
